Hello, the source for this data is patent US20230348401A1, in case you need it.

target: G6PD (Homo sapiens); test: G6PD enzymatic activity by diaphorase-coupled assay
Sequence (P11413 28-515): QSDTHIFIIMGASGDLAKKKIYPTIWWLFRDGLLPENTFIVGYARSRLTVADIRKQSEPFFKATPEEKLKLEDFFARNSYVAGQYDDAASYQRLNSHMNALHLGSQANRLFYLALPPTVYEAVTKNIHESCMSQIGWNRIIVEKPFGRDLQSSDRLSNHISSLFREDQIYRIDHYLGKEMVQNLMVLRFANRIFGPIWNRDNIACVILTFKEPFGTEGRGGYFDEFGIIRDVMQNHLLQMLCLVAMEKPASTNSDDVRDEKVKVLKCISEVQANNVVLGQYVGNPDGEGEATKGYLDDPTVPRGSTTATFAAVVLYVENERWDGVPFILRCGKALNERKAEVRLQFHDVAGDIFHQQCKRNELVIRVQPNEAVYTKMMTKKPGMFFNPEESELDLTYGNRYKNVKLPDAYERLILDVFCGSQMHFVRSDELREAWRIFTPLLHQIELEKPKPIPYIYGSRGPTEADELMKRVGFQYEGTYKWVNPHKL
pIC50: −log10 of the molar value.
Below is a list of entries, each paired with its recorded pIC50 value.

Reference set, count: 5
compound	pIC50
N#Cc1cc(Nc2ncc3c(n2)CCCCC3=O)cc(OCc2cnoc2)c1 [Compound 0123]	> 6.00
O=C1CCCc2nc(NCc3cccnc3)ncc21 [KG-0162-0]	3.00 to 6.00
COC(=O)c1ccc(COc2cc(C#N)cc(Nc3ncc4c(n3)CCCCC4=O)c2)cc1 [Compound 0096]	< 3.00
N#Cc1cc(Nc2ncc3c(n2)CCCCC3=O)cc(OCc2ccc(Cl)cc2)c1 [Compound 0045]	3.00 to 6.00
N#Cc1cc(Nc2ncc3c(n2)CCCCC3=O)c(C(F)(F)F)s1 [KG-0337-0A]	3.00 to 6.00

Field pIC50 (entry O=C1CCCc2nc(Nc3ncco3)ncc21 [KG-0213-0] ) reads < 3.00

Lab book: pIC50 of CCCc1cc(C#N)cc(Nc2ncc3c(n2)CCCCC3=O)c1 [Compound 0161] noted as 3.00 to 6.00

Looking up N#Cc1cc(Nc2ncc3c(n2)CCCCC3=O)cc(OCc2ccc(CO)cc2)c1 [Compound 0082] , I found its pIC50 recorded as > 6.00

---

Documented IC50 across a set of molecules
molecular target: G6PD (Homo sapiens); assay: G6PD enzymatic activity by diaphorase-coupled assay; conditions: Normalized in vitro IC50, Table 1; diaphorase-coupled biochemical assay, normalization to an intraplate control

Worked examples follow.
smiles-entry	system-tested	endpoint	recorded-value
O=C1CCCc2nc(Nc3nc4ccccc4s3)ncc21	G6PD (Homo sapiens)	IC50	> 1000 µM
N#Cc1cccc(Nc2ncc3c(n2)CCCC3=O)c1	G6PD (Homo sapiens)	IC50	< 1 µM
O=C1CCCc2nc(Nc3cccc(F)c3)ncc21	G6PD (Homo sapiens)	IC50	< 1 µM
O=C1CCCCc2nc(Nc3cccc(F)c3)ncc21	G6PD (Homo sapiens)	IC50	< 1 µM
O=C1CCCc2nc(Nc3ccon3)ncc21	G6PD (Homo sapiens)	IC50	1 to 1000 µM

Please examine the following record next.
// recorded IC50 for "O=C1CCCc2nc(Nc3ccc4nc[nH]c4c3)ncc21" : 1 to 1000 µM

---

biological target: G6PD (Homo sapiens); assay: G6PD enzymatic activity by diaphorase-coupled assay
pIC50: −log10 of the molar value.
Documented pIC50 across a set of compounds

smiles-entry	recorded-value
N#Cc1cc(Nc2ncc3c(n2)CCCCC3=O)cc(OC(=O)c2ccccc2)c1	3.00 to 6.00
Cc1cccc(Oc2ncc3c(n2)CCCC3=O)c1	< 3.00
N#Cc1cc(Nc2ncc3c(n2)CCCCC3=O)cc(OCc2ccccc2Cl)c1	> 6.00
Cc1cccc(Nc2ccc3c(c2)CCCC3=O)c1	< 3.00
N#Cc1cccc(Nc2ncc3c(n2)CCCS3(=O)=O)c1	3.00 to 6.00

Measured pIC50, "CO/N=C1\CCCc2nc(Nc3cccc(C#N)c3)ncc21" : < 3.00

pIC50 measured on "CC(C)Oc1cc(C#N)cc(Nc2ncc3c(n2)CCCCC3=O)c1" = > 6.00

Query "O=C1CCCCc2nc(Nc3cc(C(F)(F)F)cc(C(F)(F)F)c3)ncc21" yields pIC50 of 3.00 to 6.00

response.value for "N#Cc1cc(Nc2ncc3c(n2)CCCNC3=O)cs1" (field: pIC50) = 3.00 to 6.00
